Test system: Streptococcus
Assay: Group A Streptococcus viability loss, dose response, counter-screen for streptokinase expression inhibitor project, luminescence, BacTiterGlo (AID 1915);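 also: potency for reduction of bacterial viability or growth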
Type: functional, organism-based
The source made the active and inactive calls.
Measure: EC50

Solved entries:
CCCCCCCOC(=O)C[N+](C)(C)CCOC1CC2CCC1(C)C2(C)C (centres undefined) = 9.21 µM (active)
Nc1nc(-c2ccccn2)nc(N)c1Cc1ccc(Cl)cc1Cl = 13.5 µM (active)
CCn1c(=O)c(C(=O)NNC(=O)Cc2ccccc2)c(O)c2ccccc21 = > 150 µM (not active)

--- query ---
Recorded EC50 of O=C(c1cccs1)N1N=C(c2ccccc2)CC1c1ccccc1 (centres undefined) , please.
16.2 µM (active)

###

So I've got a bunch of compounds here, and I need their EC50 values.
Target: UniProt:P9WHJ3
Sequence (P9WHJ3 whole entry): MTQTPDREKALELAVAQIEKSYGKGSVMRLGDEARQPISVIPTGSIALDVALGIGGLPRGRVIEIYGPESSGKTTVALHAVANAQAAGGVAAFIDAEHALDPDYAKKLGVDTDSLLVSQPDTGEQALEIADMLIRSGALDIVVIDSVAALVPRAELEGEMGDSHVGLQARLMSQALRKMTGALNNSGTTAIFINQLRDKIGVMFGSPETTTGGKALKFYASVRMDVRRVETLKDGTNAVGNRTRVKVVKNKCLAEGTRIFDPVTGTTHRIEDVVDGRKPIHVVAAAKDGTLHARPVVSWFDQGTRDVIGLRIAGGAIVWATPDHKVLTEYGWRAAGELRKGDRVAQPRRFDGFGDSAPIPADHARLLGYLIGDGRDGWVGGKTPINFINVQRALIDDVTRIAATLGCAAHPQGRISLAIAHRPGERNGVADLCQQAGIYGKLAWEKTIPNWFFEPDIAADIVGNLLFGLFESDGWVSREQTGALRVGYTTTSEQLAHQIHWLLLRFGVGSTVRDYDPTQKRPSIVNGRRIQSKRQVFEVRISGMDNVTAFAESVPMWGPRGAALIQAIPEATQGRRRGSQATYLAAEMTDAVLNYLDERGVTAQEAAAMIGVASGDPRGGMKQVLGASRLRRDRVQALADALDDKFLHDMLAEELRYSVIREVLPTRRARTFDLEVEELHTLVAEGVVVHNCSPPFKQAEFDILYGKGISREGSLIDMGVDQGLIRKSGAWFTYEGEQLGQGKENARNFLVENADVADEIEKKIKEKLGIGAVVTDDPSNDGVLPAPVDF
Assay: Fluorescence Cell-Free Homogeneous Dose Retest to Identify Inhibitors of RecA-Intein Splicing Activity. [Related pubchem assays (depositor defined):AID2097, AID2223, AID489010, AID492950]
Assay type: functional
Calls of active or inactive are those of the source.

Dear colleague, could you send me EC50 for each of the items below? Thanks.
1. Cc1cccc(C)c1NC(=O)c1nc(S(=O)(=O)Cc2ccccc2)ncc1Cl
2. Cc1ccc2c(c1)-c1c(ssc1=S)C(C)(C)N2C(=O)CSc1nncn1C
3. CCOC(=O)CSc1nc(=O)c(NCC(=O)OC)n[nH]1
4. Cc1ccccc1CS(=O)(=O)c1nnc([C@H](CC(C)C)NC(=O)OC(C)(C)C)o1
5. CC(C)(C)NC(=O)CSc1ncnc2c1nnn2Cc1ccccc1Cl
6. COc1ccc(/C=C2/C(=O)N(c3ccccc3)N=C2C)cc1

6.63 µM (active)
9.47 µM (active)
5.87 µM (active)
11.6 µM (active)
8.37 µM (active)
1.7 µM (active)

###

Target: Calcium/calmodulin-dependent protein kinase type II subunit alpha (Homo sapiens)
Sequence (Q9UQM7 whole entry): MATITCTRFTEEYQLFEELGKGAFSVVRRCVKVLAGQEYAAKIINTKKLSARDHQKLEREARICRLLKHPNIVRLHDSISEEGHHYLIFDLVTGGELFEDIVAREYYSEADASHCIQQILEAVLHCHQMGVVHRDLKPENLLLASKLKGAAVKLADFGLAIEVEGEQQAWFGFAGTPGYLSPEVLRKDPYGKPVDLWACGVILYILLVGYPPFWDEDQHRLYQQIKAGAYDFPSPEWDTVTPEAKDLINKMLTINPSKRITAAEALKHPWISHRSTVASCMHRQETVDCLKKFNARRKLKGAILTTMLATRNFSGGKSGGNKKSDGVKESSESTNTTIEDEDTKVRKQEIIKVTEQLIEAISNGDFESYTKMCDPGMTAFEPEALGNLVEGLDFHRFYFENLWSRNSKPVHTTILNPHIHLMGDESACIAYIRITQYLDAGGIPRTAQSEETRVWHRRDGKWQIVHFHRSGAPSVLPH
Assay: Navigating the Kinome. Panel member name: CAMK2A
Type: functional
Calls of active or inactive are those of the source.
Could you please pick one outcome from this set? active, inactive

See these solved cases before continuing.
CC(C)(O)c1cn(-c2ccc3[nH]ncc3c2)nn1 = active
COC(C(=O)N1Cc2[nH]nc(NC(=O)c3ccc(N4CCN(C)CC4)cc3)c2C1)c1ccccc1 (centres undefined) = inactive

Test call, this molecule: OCc1cc(-c2ccc3[nH]ncc3c2)on1
active

And CC(C)CC(CO)NC(=O)c1cccc(-n2nc(C(C)(C)C)cc2NC(=O)Nc2cccc3ccccc23)c1 (centres undefined) ?
inactive

###

Kindly state IC50 for each of the entries shown.
Target: Rac GTPase-activating protein 1 (Homo sapiens, UniProt Q9H0H5)
Sequence (Q9H0H5 whole entry): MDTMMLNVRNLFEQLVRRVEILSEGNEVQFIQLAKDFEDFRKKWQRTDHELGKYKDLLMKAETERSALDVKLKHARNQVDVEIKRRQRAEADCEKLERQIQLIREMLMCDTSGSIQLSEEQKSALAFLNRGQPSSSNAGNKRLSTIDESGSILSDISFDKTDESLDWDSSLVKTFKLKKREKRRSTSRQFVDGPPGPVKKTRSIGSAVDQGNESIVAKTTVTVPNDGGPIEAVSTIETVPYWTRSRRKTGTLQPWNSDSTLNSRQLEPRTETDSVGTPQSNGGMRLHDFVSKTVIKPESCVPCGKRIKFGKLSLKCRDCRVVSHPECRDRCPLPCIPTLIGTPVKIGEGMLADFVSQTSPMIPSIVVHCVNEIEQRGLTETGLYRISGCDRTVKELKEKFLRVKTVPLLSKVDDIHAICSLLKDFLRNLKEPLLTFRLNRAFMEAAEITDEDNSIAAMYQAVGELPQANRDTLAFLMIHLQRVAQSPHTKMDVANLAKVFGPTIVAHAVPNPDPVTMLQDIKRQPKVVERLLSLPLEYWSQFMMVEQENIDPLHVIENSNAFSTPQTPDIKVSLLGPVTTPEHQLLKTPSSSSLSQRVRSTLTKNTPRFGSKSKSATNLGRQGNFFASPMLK
Assay: MgcRacGAP GTPase-activating activity inhibitors, confirmation, biochemical, ADP Hunter fluorescence, primary and confirmatory (AID 624330)
Type: functional
Active and inactive are the calls of the source.

# batch size: 7; output IC50 per entry
1. CCc1ccc2nc3sc(C(=O)O)cc3cc2c1
2. CC1(C)CC(=O)C(/C=N/c2ccc(N)cc2)=C(O)C1
3. Nc1ccc(-c2nc3ccc(N)cc3o2)cc1
4. c1cc(CNc2ccc3c(c2)OCCO3)ccn1
5. O=C1OCC/C1=C\c1ccc(O)cc1
6. c1cc(CNc2ccc3c(c2)OCO3)ccn1
7. CCOC(=O)c1nc(S)n(Cc2ccccc2)c1C(=O)OCC

1: 122 µM (active); 2: 46.9 µM (active); 3: 47.8 µM (active); 4: 108 µM (active); 5: 28.9 µM (active); 6: 63.8 µM (active); 7: 49.6 µM (active)

Would you mind listing IC50 for each of the following compounds?
1. COc1cc(/C=N/n2c(C)nc3ccccc3c2=O)ccc1O
2. O=C(c1cccc(Cl)c1)N1CCN(Cc2ccncc2)CC1
3. COc1cc(/C=N/Nc2nc3ccccc3[nH]2)ccc1O
4. O=C(O)CCCn1c(=S)[nH]c2c(sc3ccc([N+](=O)[O-])cc32)c1=O
5. CC[n+]1ccc(/C=C/c2ccc(N(C)C)cc2)c2ccccc21

1: 48.5 µM (active); 2: 99.7 µM (active); 3: 14 µM (active); 4: 40.3 µM (active); 5: 36.1 µM (active)

Below are 7 compounds. Give each one its IC50.
1. O=C(O)CC1SC(Nc2ccc(O)cc2)=NC1=O (centres undefined)
2. COc1ccc(NC2CCCN(C(=O)c3ccccc3-c3ncc[nH]3)C2)cc1 (centres undefined)
3. C/C(CC(=O)Nc1ccc(N(C)C)cc1)=N\NC(=O)c1ccc([N+](=O)[O-])cc1
4. CN(C)CCO/N=C(\c1ccc(Br)cc1)c1cccnc1
5. O=C(/C(=C/c1ccccc1)n1cncn1)c1ccc(Cl)cc1Cl
6. CN(C)/C=C/c1oc2ccc(O)cc2c1[N+](=O)[O-]
7. COCCNCC(=O)Nc1ccc(C)c(S(=O)(=O)N2CCCCC2)c1

1. 118 µM (active)
2. 146 µM (active)
3. 62.3 µM (active)
4. 141 µM (active)
5. 150 µM (active)
6. 14 µM (active)
7. 132 µM (active)

###

Target: Alkaline phosphatase, tissue-nonspecific isozyme (Homo sapiens)
Sequence (P05186 whole entry): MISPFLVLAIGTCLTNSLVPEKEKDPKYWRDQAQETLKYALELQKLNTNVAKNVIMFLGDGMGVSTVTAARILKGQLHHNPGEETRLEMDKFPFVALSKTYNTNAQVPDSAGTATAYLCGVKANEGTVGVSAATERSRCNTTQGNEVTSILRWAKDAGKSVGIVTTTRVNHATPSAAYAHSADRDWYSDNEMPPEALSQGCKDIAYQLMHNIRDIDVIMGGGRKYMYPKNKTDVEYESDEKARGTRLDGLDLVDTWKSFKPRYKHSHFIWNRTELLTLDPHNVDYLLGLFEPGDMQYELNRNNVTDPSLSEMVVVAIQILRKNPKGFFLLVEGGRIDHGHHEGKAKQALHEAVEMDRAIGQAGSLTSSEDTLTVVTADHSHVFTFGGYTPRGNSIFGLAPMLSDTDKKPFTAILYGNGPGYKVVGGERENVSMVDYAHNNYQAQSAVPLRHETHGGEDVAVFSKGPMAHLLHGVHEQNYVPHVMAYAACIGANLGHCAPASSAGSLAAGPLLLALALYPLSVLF
Test: human TNAP enzyme inhibitors, SAR follow-up, biochemical, luminescent, dose response (AID 1056)
Activity calls are given as the source filed them.
One label from this list, please: active, inactive

Cn1c(SCC(=O)c2ccc(O)c(O)c2)nnc1-c1ccccc1 = active

How was COC(=O)C(N)Cc1ccc(O)c(O)c1 (stereo not given) classified in this test?
inactive

Same question for Cc1c(-c2ccccc2)n[nH]c1C(=O)O please.
inactive

Cc1ccc(-c2nnc(SCC(=O)c3ccc(O)c(O)c3)n2-c2ccc(C)cc2)cc1 ?
inactive

NNC(=O)c1cc(-c2cc(F)c(F)cc2F)[nH]n1 ?
active

###

I'd be grateful if you could share measured EC50 for these entries.
Molecular target: Short transient receptor potential channel 4 (Mus musculus, UniProt Q9QUQ5)
Sequence (Q9QUQ5 whole entry): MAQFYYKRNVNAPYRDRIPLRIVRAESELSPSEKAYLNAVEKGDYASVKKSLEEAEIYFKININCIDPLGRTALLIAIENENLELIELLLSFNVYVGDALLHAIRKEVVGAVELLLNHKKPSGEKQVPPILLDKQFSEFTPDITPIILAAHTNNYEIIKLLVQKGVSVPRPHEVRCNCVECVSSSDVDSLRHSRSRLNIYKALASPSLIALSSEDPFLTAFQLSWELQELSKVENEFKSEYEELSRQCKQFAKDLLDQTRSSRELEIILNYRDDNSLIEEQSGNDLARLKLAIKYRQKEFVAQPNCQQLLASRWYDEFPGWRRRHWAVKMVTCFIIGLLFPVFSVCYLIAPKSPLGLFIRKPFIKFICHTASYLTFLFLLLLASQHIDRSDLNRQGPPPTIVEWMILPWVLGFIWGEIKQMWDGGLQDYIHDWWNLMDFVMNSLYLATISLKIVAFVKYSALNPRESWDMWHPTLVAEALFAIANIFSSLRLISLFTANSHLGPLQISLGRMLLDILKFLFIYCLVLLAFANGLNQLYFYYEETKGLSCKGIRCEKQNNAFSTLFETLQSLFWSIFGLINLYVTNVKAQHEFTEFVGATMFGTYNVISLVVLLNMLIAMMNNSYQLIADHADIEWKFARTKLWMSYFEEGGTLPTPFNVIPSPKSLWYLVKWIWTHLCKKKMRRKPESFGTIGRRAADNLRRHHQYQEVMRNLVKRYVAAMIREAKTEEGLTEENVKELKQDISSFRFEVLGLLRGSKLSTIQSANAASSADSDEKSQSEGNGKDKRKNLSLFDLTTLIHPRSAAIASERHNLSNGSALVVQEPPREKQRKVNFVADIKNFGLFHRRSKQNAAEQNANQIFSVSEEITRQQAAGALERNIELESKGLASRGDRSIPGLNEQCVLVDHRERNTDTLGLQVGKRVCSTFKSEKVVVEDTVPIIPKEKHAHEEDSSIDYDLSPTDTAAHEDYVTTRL
Experiment: mouse TRPC4 channel inhibitors, dose response, cell-based, HEK293 TRPC4/mu-opioid, Fluo-4 calcium (AID 434942);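 also: potency of inhibitors blocking the TRPC4 calcium response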
Format: functional
Active and inactive are the calls of the source.

CCOC(=O)c1c(NC(=O)/C=C/C(=O)O)sc(C)c1-c1ccc(C(C)(C)C)cc1 = 5.31 µM (active)
Cc1cc(Nc2cccc(O)c2)c2ccccc2n1 = 5.31 µM (active)
Cc1ccc(CSc2nc(-c3ccccc3)c(C#N)c(=O)[nH]2)cc1 = 5.31 µM (active)
CCN(CC)C(=O)C1CCCN(Cc2cccc(Oc3ccccc3)c2)C1 (stereo not given) = 2.37 µM (active)

Here is the next item to consider.
Item Cc1nn(-c2ccccc2)c2nc(C(F)(F)F)cc(O)c12 has what recorded EC50?
6.68 µM (active)

###

Target: Heat shock factor protein 1 (Mus musculus)
Sequence (P38532 whole entry): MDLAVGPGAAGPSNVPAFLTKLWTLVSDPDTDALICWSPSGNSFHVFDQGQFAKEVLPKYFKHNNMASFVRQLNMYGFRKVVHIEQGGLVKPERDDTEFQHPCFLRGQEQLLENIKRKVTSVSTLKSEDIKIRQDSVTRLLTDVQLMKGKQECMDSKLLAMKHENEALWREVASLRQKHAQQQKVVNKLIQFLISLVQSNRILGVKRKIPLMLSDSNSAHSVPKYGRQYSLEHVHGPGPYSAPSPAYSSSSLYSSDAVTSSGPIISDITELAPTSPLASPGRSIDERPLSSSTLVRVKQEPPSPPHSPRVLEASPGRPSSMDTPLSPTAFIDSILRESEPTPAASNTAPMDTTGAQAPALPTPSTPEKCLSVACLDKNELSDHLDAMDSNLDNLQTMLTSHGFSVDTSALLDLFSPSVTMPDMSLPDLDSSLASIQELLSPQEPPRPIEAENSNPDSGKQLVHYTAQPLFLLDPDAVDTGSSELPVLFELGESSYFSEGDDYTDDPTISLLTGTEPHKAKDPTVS
Assay: inhibition of MG132-induced HSE-luciferase signal, confirmation, cell-based, NIH3T3, luminescence, dose retest (AID 2382);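 also: NIH3T3 fibroblasts with HSF1-driven luciferase reporter stressed by proteasome inhibitor MG132; luminescence from HSF1-driven luciferase expression after 8 hours of MG132 stress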
Assay type: functional
Calls of active or inactive are those of the source.
Measure: EC50

Solved entries:
CCOC(=O)/C=C/C(=O)Nc1ccccc1-c1ccccc1NC(=O)/C=C/C(=O)OCC = 14.4 µM (active)
CC1CCCN(C(=O)CSc2nnc(-c3ccc(O)cc3)o2)C1 (centres undefined) = > 195 µM (not active)
CCOC(=O)c1sc2nc3c(cc2c1N)COC(C(C)C)C3 (centres undefined) = > 195 µM (not active)

List EC50 for every entry below, keeping the order given.
1. CC(C)n1cc(CN2CCCC(CNS(=O)(=O)c3cccc4cccnc34)C2)cn1 (centres undefined)
2. COc1cccc(C2CC(c3ccccc3)n3ncnc3N2)c1 (centres undefined)
3. COc1ccc(C(=O)COC(=O)CCN2C(=O)C3C4CC(C(Br)C4Br)C3C2=O)cc1 (centres undefined)
4. Cc1[nH]n(CCC#N)c(=O)c1CC(=O)N1CCN(c2ccccc2)CC1
5. Cc1ccc(S(=O)(=O)NC(C)(C)CSc2nncn2N)cc1
6. CC(=O)Nc1cc[n+](C(C)C(=O)c2ccccc2)cc1 (centres undefined)
7. CCCCN(c1ccccc1)c1ncnc(N)c1[N+](=O)[O-]
8. COC(=O)c1nc(Cl)c(Cl)c(N)c1Cl

1. > 195 µM (not active)
2. > 195 µM (not active)
3. > 195 µM (not active)
4. > 195 µM (not active)
5. > 195 µM (not active)
6. > 195 µM (not active)
7. 8.33 µM (active)
8. > 195 µM (not active)

Kindly give each listed record's EC50.
1. Cc1ccc(NC(=O)c2cnc(N3CCN(c4ccccn4)CC3)c3ccccc23)c(Br)c1
2. CC(O)CNCCCOc1ccc(Cl)cc1C(C)(C)C (centres undefined)

["8.67 µM (active)", "142 µM (active)"]

Heat shock factor protein 1 (Mus musculus) / EC50 / CC(C)C[C@H](NC(=O)N1CCCCCC1)C(=O)O : value?
> 195 µM (not active)
